Reported pIC50 against Farnesyl pyrophosphate synthase (Homo sapiens, UniProt P14324), gathered from multiple publications, appears below.
Sequence (P14324 whole entry): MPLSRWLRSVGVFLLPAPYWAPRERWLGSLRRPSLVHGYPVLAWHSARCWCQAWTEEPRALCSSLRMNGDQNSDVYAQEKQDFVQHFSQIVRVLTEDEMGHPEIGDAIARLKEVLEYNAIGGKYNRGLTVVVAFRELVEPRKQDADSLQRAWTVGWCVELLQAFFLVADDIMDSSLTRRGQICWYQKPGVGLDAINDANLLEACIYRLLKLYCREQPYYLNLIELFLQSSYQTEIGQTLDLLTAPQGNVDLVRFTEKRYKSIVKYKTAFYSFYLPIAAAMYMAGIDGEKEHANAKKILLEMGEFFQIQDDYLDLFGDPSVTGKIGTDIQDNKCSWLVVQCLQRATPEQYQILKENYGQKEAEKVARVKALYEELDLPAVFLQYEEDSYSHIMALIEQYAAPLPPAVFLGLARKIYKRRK
pIC50: −log10 of the molar value.

>>> recorded_value("O=C(O)C(Cn1cnc2ccccc21)P(=O)(O)O (stereo unspecified)")
"< 4.00"
>>> recorded_value("Cc1cc2ncn(CC(C(=O)O)P(=O)(O)O)c2cc1C (stereo unspecified)")
"< 4.00"
>>> recorded_value("O=P(O)(O)C(Cn1cccn1)P(=O)(O)O")
5.51
>>> recorded_value("O=C(Nc1ccc(N2CCCCC2)cc1)C1=C(O)C(CCc2ccccc2)NC1=O (stereo unspecified)")
"< 4.30"
>>> recorded_value("O=C(Nc1ccc(-c2ccccc2)cc1)C1=C(O)C(CCc2ccccc2)NC1=O (stereo unspecified)")
"< 4.00"

Pending compound:
Qu. Report value: pIC50, system: Farnesyl pyrophosphate synthase (Homo sapiens, UniProt P14324), compound: O=C(Nc1ccc(C2CCCCC2)cc1)C1=C(O)CC(c2ccccc2)NC1=O (stereo unspecified)
Ans. < 4.30
